- measuredTarget: calpain-I isolated from human erythrocytes (Homo sapiens)
- Construct: calpain-I—isolated from human erythrocytes
- protocolDetails: Calpain I kinetic fluorescence enzyme inhibition assay
- studyConditions: apparent Ki from IC50 by Cheng-Prussoff; average of 2 to 4 dose-effect plots
Where a name gives a salt, the structure may show the parent alone.
measurementType: Ki

molecule="COc1ccc(CC(NC(=O)c2cccnc2-n2ccc(-c3ccc(F)cc3Cl)n2)C(=O)C(N)=O)cc1 (stereo not shown)" measuredtarget="calpain-I isolated from human erythrocytes (Homo sapiens)" measurementtype=Ki result="≤ 40 nM"

Please go through the list and note Ki for each molecule.
1. CCCCC(NC(=O)c1cccnc1-n1cnc(-c2cccc(Cl)c2)c1)C(=O)C(N)=O (stereo not shown)
2. NC(=O)C(=O)C(Cc1ccccc1)NC(=O)c1cccnc1-n1ccc(-c2cccc(N3CCCC3)c2)n1 (stereo not shown)
3. NC(=O)C(=O)C(Cc1ccccc1)NC(=O)c1cccnc1-n1ccc(-c2ccc(CN3CCOCC3)cc2)n1 (stereo not shown)
4. NC(=O)C(=O)C(Cc1ccccc1)NC(=O)c1cccnc1-n1ccc(-c2ccccc2Cl)n1 (stereo not shown)

Given back:
1. ≤ 40 nM
2. ≤ 40 nM
3. 40 to 100 nM
4. 40 to 100 nM

Take each entry in turn and give its Ki.
1. NC(=O)C(=O)C(Cc1ccccc1)NC(=O)c1cccnc1-n1ccc(-c2ccc(F)cc2)n1 (stereo not shown)
2. NC(=O)C(=O)C(Cc1ccccc1)NC(=O)c1cc(Cl)cnc1-n1cnc(-c2ccccc2)c1 (stereo not shown) [Example 23, hydrochloride]

Given back:
1: 40 to 100 nM; 2: ≤ 40 nM

* * *

- measuredTarget: calpain-I isolated from human erythrocytes (Homo sapiens, UniProt P07384)
- Construct: calpain-I—isolated from human erythrocytes
- protocolDetails: Calpain I kinetic fluorescence enzyme inhibition assay
- studyConditions: apparent Ki from IC50 by Cheng-Prussoff; average of 2 to 4 dose-effect plots
pKi: −log10 of the molar value.
Answer each item with its documented pKi.

molecule="NC(=O)C(=O)C(Cc1ccccc1)NC(=O)c1cccnc1-n1cc(-c2ccccc2F)cn1 (stereo not shown)" measuredtarget="calpain-I isolated from human erythrocytes (Homo sapiens, UniProt P07384)" result="≥ 7.40"
molecule="NC(=O)C(=O)C(Cc1ccccc1)NC(=O)c1cccnc1-n1ccc(-c2cc(Cl)ccc2Cl)n1 (stereo not shown)" measuredtarget="calpain-I isolated from human erythrocytes (Homo sapiens, UniProt P07384)" result="≥ 7.40"
molecule="NC(=O)C(=O)C(Cc1ccccc1)NC(=O)c1cccnc1-n1ccc(-c2ccc(N3CCCCC3)cc2)n1 (stereo not shown)" measuredtarget="calpain-I isolated from human erythrocytes (Homo sapiens, UniProt P07384)" result="≥ 7.40"
molecule="NC(=O)C(=O)C(Cc1ccccc1)NC(=O)c1cccnc1-n1cc(Cl)c(-c2ccc(F)cc2)n1 (stereo not shown)" measuredtarget="calpain-I isolated from human erythrocytes (Homo sapiens, UniProt P07384)" result="7.00 to 7.40"
molecule="CS(=O)(=O)Nc1cnc(-n2ccc(-c3ccccc3)n2)c(C(=O)NC(Cc2ccccc2)C(=O)C(N)=O)c1 (stereo not shown)" measuredtarget="calpain-I isolated from human erythrocytes (Homo sapiens, UniProt P07384)" result="7.00 to 7.40"

Take each entry in turn and give its pKi.
1. NC(=O)C(=O)C(Cc1ccccc1)NC(=O)c1cccnc1-n1cc2c(n1)-c1ccccc1OC2 (stereo not shown)
2. CCN(CC)c1ccc(-c2ccn(-c3ncccc3C(=O)NC(Cc3ccccc3)C(=O)C(N)=O)n2)cc1 (stereo not shown)

Given back:
1: ≥ 7.40; 2: ≥ 7.40

* * *

- measuredTarget: calpain-I isolated from human erythrocytes (Homo sapiens, UniProt P07384)
- Construct: calpain-I—isolated from human erythrocytes
- Sequence (P07384 1-714): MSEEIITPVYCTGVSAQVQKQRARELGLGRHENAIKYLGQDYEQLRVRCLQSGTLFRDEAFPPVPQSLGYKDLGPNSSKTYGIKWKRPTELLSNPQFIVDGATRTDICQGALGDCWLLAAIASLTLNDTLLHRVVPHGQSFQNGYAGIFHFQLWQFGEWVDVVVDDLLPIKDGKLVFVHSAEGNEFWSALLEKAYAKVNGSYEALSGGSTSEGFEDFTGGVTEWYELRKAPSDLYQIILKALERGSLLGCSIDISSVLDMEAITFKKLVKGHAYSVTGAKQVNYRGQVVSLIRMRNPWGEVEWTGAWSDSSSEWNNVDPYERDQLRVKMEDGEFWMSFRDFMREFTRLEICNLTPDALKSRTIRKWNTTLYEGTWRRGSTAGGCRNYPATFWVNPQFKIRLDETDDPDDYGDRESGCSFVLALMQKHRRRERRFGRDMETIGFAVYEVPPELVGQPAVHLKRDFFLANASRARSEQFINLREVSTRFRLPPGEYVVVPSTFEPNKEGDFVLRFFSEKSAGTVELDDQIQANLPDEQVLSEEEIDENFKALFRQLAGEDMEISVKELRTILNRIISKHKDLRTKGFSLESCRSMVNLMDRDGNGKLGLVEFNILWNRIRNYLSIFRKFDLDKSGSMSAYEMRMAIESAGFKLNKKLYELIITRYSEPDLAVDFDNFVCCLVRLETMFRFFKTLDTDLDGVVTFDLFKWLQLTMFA
- Sequence (P04632 1-268 partner): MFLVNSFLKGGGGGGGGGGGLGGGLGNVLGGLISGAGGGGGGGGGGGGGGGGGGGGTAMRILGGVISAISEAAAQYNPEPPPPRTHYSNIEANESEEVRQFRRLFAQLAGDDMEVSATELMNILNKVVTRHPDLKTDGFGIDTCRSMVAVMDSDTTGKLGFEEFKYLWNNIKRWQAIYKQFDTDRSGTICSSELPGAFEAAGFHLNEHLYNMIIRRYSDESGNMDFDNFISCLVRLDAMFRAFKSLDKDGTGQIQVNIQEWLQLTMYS
- protocolDetails: Calpain I kinetic fluorescence enzyme inhibition assay
- studyConditions: apparent Ki from IC50 by Cheng-Prussoff; average of 2 to 4 dose-effect plots
I'd appreciate it if you could supply Ki values for the items below.

compound="CCCCC(NC(=O)c1cccnc1-n1ccc(-c2ccc(N3CCOCC3)cc2)n1)C(=O)C(N)=O (stereo not shown) [Example 33]" result="≤ 40 nM"

Provide Ki for all items below, preserving their order.
1. NC(=O)C(=O)C(Cc1ccc(F)cc1)NC(=O)c1cccnc1-n1ccc(-c2ccccc2OC(F)(F)F)n1 (stereo not shown) [Example 152]
2. NC(=O)C(=O)C(Cc1ccccc1)NC(=O)c1cccnc1-n1ccc(C2CCCCC2)n1 (stereo not shown) [Example 192]
3. CS(=O)(=O)NCc1cn(-c2ncccc2C(=O)NC(Cc2ccccc2)C(=O)C(N)=O)nc1-c1ccc(F)cc1 (stereo not shown) [Example 187]
4. CCCCC(NC(=O)c1cccnc1-n1ccc(-c2ccccc2)n1)C(=O)C(N)=O (stereo not shown) [Example 6]
5. NC(=O)C(=O)C(Cc1ccccc1)NC(=O)c1cccnc1-n1ccc(-c2ccccc2OC(F)F)n1 (stereo not shown) [Example 166]
6. NC(=O)C(=O)C(Cc1ccccc1)NC(=O)c1cccnc1-n1ccc(-c2cccc3cccnc23)n1 (stereo not shown) [Example 160]

Given back:
["≤ 40 nM", "40 to 100 nM", "40 to 100 nM", "≤ 40 nM", "≤ 40 nM", "40 to 100 nM"]

* * *

- measuredTarget: calpain-I isolated from human erythrocytes (Homo sapiens, UniProt P07384)
- Construct: calpain-I—isolated from human erythrocytes; purchased Calbiochem 208713; host or cells: human erythrocytes (tissue isolate)
- Sequence (P07384 1-714): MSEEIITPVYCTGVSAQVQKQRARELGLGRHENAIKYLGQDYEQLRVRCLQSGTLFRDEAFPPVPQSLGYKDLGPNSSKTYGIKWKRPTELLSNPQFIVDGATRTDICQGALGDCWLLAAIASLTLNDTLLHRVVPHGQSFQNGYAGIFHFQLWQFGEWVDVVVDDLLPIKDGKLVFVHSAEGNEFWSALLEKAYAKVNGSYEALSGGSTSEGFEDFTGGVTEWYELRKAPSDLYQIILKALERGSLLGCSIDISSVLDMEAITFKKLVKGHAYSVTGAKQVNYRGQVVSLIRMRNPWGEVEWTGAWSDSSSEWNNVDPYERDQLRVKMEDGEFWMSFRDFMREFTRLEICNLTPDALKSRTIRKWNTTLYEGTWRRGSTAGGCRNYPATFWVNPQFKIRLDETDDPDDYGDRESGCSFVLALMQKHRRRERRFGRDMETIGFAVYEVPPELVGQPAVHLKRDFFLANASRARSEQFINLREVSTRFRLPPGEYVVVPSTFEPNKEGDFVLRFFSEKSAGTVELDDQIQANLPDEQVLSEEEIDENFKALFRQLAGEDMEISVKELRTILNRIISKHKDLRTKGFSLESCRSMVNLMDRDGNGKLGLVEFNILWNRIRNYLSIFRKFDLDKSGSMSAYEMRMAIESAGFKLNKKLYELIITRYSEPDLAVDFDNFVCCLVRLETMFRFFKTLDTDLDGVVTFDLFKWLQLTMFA
- Sequence (P04632 1-268 partner): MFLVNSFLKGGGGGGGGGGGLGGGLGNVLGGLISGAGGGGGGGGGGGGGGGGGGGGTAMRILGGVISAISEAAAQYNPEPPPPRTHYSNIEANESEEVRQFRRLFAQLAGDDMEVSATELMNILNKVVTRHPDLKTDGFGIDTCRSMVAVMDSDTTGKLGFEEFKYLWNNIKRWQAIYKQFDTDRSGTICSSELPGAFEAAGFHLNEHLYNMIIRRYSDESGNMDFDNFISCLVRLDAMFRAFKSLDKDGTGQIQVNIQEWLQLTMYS
- protocolDetails: Calpain I kinetic fluorescence enzyme inhibition assay
- Format: biochemical
- studyConditions: apparent Ki from IC50 by Cheng-Prussoff; average of 2 to 4 dose-effect plots
measurementType: Ki

compound="NC(=O)C(=O)C(Cc1ccccc1)NC(=O)c1cccnc1-n1ccc(-c2ccc(N3CCOCC3)cc2F)n1 (stereo not drawn)" result="≤ 40 nM"
compound="COc1c(C)cc(C)cc1-c1ccn(-c2ncccc2C(=O)NC(Cc2ccccc2)C(=O)C(N)=O)n1 (stereo not drawn)" result="≤ 40 nM"
compound="Cc1c(Cl)ccc2c1-c1nn(-c3ncccc3C(=O)NC(Cc3ccccc3)C(=O)C(N)=O)cc1CO2 (stereo not drawn)" result="40 to 100 nM"

Look up Ki for the entries below, preserving their order.
1. COc1ccc2c(c1)OCc1cn(-c3ncccc3C(=O)NC(Cc3ccccc3)C(=O)C(N)=O)nc1-2 (stereo not drawn)
2. NC(=O)C(=O)C(Cc1ccccc1)NC(=O)c1cccnc1-n1ccc(-c2cccc(OC(F)(F)F)c2)n1 (stereo not drawn)
3. NC(=O)C(=O)C(Cc1ccccc1)NC(=O)c1cccnc1-n1cnc(-c2cccc(Cl)c2)c1 (stereo not drawn)

Given back:
≤ 40 nM
≤ 40 nM
≤ 40 nM

For every item below, please supply its Ki.
1. COc1ccc(-c2cn(-c3ncccc3C(=O)NC(Cc3ccccc3)C(=O)C(N)=O)cn2)cc1 (stereo not drawn)
2. NC(=O)C(=O)C(Cc1ccccc1)NC(=O)c1cccnc1-n1ccc(-c2ccc(Cl)cc2Cl)n1 (stereo not drawn)
3. COc1ccc(CC(NC(=O)c2cccnc2-n2ccc(-c3cccc(Cl)c3Cl)n2)C(=O)C(N)=O)cc1 (stereo not drawn)
4. NC(=O)C(=O)C(Cc1ccccc1)NC(=O)c1cc(Cl)cnc1-n1ccc(-c2ccc(N3CCOCC3)cc2)n1 (stereo not drawn)
5. COc1ccc(-c2ccn(-c3ncccc3C(=O)NC(Cc3ccccc3)C(=O)C(N)=O)n2)c(OC)c1 (stereo not drawn)
6. NC(=O)C(=O)C(Cc1ccccc1)NC(=O)c1cccnc1-n1ccc(-c2cccc(N3CCOCC3)c2)n1 (stereo not drawn)
7. CC(C)CC(NC(=O)c1cc(Cl)cnc1-n1ccc(-c2ccccc2)n1)C(=O)C(N)=O (stereo not drawn)
8. NC(=O)C(=O)C(Cc1ccccc1)NC(=O)c1cccnc1-n1ccc(-c2ccc3c(c2)CCO3)n1 (stereo not drawn)

Given back:
40 to 100 nM
40 to 100 nM
≤ 40 nM
≤ 40 nM
≤ 40 nM
≤ 40 nM
≤ 40 nM
40 to 100 nM

Asked: Give the measured Ki for NC(=O)C(=O)C(Cc1ccccc1)NC(=O)c1cccnc1-n1cc(CN2CCOCC2)c(-c2cccc(C(F)(F)F)c2)n1 (stereo not drawn)
Given back: 40 to 100 nM

Ref: patent US7728012B2
